- System: NCI-H226
- Method description: Growth inhibition of human NCI-H226 cells at 1 uM after 48 hrs by sulforhodamine B assay
- Type: functional, cell-based
Active and inactive are the calls of the source. No cut-off for these calls is given here.
Classes used: 1 (active), -1 (inactive)

{"Compound": "Nc1ncnc2c1N=C1c3ccccc3CCC1C(c1ccccc1)N2 (stereo unspecified)", "Answer label": 1}
{"Compound": "Nc1ncnc2c1N=C1c3ccccc3CCC1C(c1ccc(F)cc1)N2 (stereo unspecified)", "Answer label": 1}
{"Compound": "Nc1nc(N)c2c(n1)NC(c1ccc(F)cc1)C1CCc3ccccc3C1=N2 (stereo unspecified)", "Answer label": -1}
{"Compound": "Nc1nc(N)c2c(n1)NC(c1ccc(Cl)cc1)C1CCc3ccccc3C1=N2 (stereo unspecified)", "Answer label": -1}
{"Compound": "Nc1nc(N)c2c(n1)NC(c1ccccc1)C1CCc3ccccc3C1=N2 (stereo unspecified)", "Answer label": -1}
{"Compound": "Nc1ncnc2c1N=C1c3ccccc3CCC1C(c1ccc(Cl)cc1)N2 (stereo unspecified)", "Answer label": 1}
